# Assayed Target: Hepatocyte nuclear factor 4-alpha (Homo sapiens)
# Protocol Summary: HNF4 dimerization inhibitors, potency, dose response, counter-screen for ABHD5-PLIN5 interaction inhibitor project, biochemical, luminescence, late stage (AID 651760)
# Condition Details: luminescence biochemical assay
The source made the active and inactive calls. How the calls were made is not given here.
Outcomes: 1 = active, 0 = inactive

# Compound, Assigned Label
data = [
    ("CCCCNC(=O)Nc1ccc2c(c1)N(C)C(=O)c1ccccc1S2", 0),
    ("CC(C)c1ccc(N2C=Nc3ccc(C(C)C)cc3C2)cc1", 1),
    ("NC(=NCCCCCCN=C(N)/N=C(\\N)Nc1ccc(Cl)cc1)/N=C(\\N)Nc1ccc(Cl)cc1", 0),
    ("CN(C)CCN(Cc1ccco1)c1ccccn1", 0),
    ("CCOC(=O)c1c(NC(C)=O)sc2c1CCC(C=O)=C2Sc1ccccc1", 0),
    ("CCN(CC)CCOc1ccc(/C(=C(/Cl)c2ccccc2)c2ccccc2)cc1", 1),
    ("O=C(C[n+]1cccc(CNC(=O)c2ccc(OC(F)F)cc2)c1)Nc1cccc(C(F)(F)F)c1", 0),
    ("CN(C)CCCN(C(=O)CCc1ccccc1)c1nc2ccc(Cl)cc2s1", 0),
    ("CC(=O)Cc1cc(O)c2ccccc2c1OC(=O)c1ccccc1", 1),
    ("O=c1[nH]c(C2CCN(S(=O)(=O)c3ccc(S(=O)(=O)NC4CC4)cc3)CC2)nc2c1nnn2Cc1ccc(F)cc1", 0),
    ("CCOC(=O)c1c(NC(=O)/C=C/C(=O)O)sc(C)c1-c1ccc(C(C)(C)C)cc1", 1),
    ("CCN(CC)CCOCCOC(=O)C1(c2ccccc2)CCCC1", 1),
    ("C=C[C@]1(C)C[C@@H](OC(=O)CSCCN(CC)CC)[C@]2(C)C(C)CC[C@]3(CCC(=O)[C@H]32)[C@@H](C)[C@@H]1O (stereo not given in full)", 0),
    ("CC1=CC(C)(C)Nc2ccc(OC(=O)C(C)N3C(=O)c4ccccc4C3=O)cc21 (stereo not given)", 0),
    ("CCCCOC(=O)Nc1cc(C(=O)OC)ccc1C(=O)OC", 0),
    ("CCN(CC)CCNC(=O)c1ccc(NC(=O)c2cn(-c3ccccc3)nc2-c2cccs2)cc1", 0),
    ("O=C(/C(=C/O)N=Nc1ccc(Cl)cc1)c1ccncc1", 0),
    ("COc1cc(OC)cc(C(=O)NC(=S)N(Cc2ccccc2)C(C)C)c1", 0),
    ("CC1CCN(S(=O)(=O)c2ccc(NC(=O)Cc3ccccc3)cc2)CC1", 0),
    ("CN(C)CCCN(C(=O)CCc1ccccc1)c1nc2ccc(Br)cc2s1", 0),
    ("CN1CCC(=C2c3ccccc3CC(=O)c3sccc32)CC1", 0),
    ("COc1ccc(C)c2sc(N(CCN(C)C)C(=O)/C=C/c3cccs3)nc12", 0),
    ("CCN(CC)CCC(C)OC(c1ccccc1)c1ccccc1 (stereo not given)", 1),
    ("CCOc1cc(N)c(Cl)cc1C(=O)NCC1CN(Cc2ccc(F)cc2)CCO1 (stereo not given)", 1),
    ("FC(F)(F)c1cccc(NC(=S)N(CCCN2CCCC2)Cc2cccn2Cc2ccc(Cl)cc2)c1", 0),
    ("CCCNC(=O)Nc1ccc2c(c1)N(C)C(=O)c1ccccc1S2", 0),
    ("O=c1[nH]c(C2CCN(S(=O)(=O)c3ccc(F)cc3)CC2)nc2c1nnn2Cc1ccc2c(c1)OCCO2", 0),
    ("CN(C)CCOC1(Cc2ccc(F)cc2)CCC(C(C)(C)C)CC1 (stereo not given)", 0),
    ("CC(=O)Cc1cc(O)c2ccccc2c1OC(=O)c1ccc(Br)cc1", 0),
    ("Cc1cc(C)c(NC(=O)CN2CCN3CCCC3C2)c(C)c1 (stereo not given)", 0),
    ("COc1ccccc1-c1cc(C(=O)NC2CCN(C)CC2)c2ccc(Cl)c(C)c2n1", 0),
    ("COc1cc(C)c2sc3ccccc3c(=O)c2c1NCCN(C)C", 0),
    ("Cc1nc2c(o1)CCc1ccccc1C2N1CCN(C)CC1 (stereo not given)", 0),
    ("CC(=O)Nc1ccc(S(=O)(=O)N2c3ccc(F)cc3CCC2C)cc1 (stereo not given)", 0),
    ("COc1ccc(NC(=S)N(CCCN2CCCC2)Cc2cccn2Cc2ccc(Cl)cc2)cc1Cl", 0),
    ("COCCN(CCOC)c1nc(N)c2c(N)nc3c(c2c1C#N)CC(=O)N3Cc1ccc(Cl)cc1", 0),
    ("COc1cc2c(cc1OC)C(C)N(CCc1ccc(Cl)cc1)CC2 (stereo not given)", 0),
    ("CC1CCN(S(=O)(=O)c2ccc(NC(=O)Cc3cccs3)cc2)CC1", 0),
    ("CCN(CC)CCN(CC(=O)Nc1c(C)cc(C)cc1C)C(=O)c1ccccc1", 0),
    ("Cc1ccc2nc3cc([N+](=O)[O-])cc([N+](=O)[O-])c3cc2c1", 0),
]
